experiment: Pharmacokinetics in Yucatan mini-pigs, single subcutaneous or intravenous dose; format: in vivo; settings: male, Yucatan mini-pig, minipig, plasma, sc, 19 nmol/kg, single subcutaneous dose 19 nmol/kg, Mean
*1 amine or outer side, *2 acyl side, *3 side chain or, on linkers, in order; H or OH if unused. Side-chain parts run from the residue outwards. [ ]: non-standard residue; d: D form. The star is where a group is joined. C20 diacid = O=C(O)CCCCCCCCCCCCCCCCCCC(=O)*; γGlu = O=C(O)[C@H](CCC(=O)[*:2])N[*:1]; εLys = N[C@@H](CCCCN[*:1])C(=O)[*:2]; αMeL = CC(C)C[C@](C)(N)C(=O)O; AEEA = NCCOCCOCC(=O)O; Aib = CC(C)(N)C(=O)O
assay readout: half-life (h)

Ac-GSPSIVTS[αMeL]DVPT[Aib][αMeL]LQKILEQERAEKARQQAK([γGlu-AEEA-εLys-C20 diacid])EAAEILAQV-NH2 [SEQ ID NO: 1] | 75.9
Ac-GSPSIVTS[αMeL]DVPT[Aib][αMeL]LQKLLEQERAEKARQQAK([γGlu-AEEA-εLys-C20 diacid])EAAEILAQV-NH2 [SEQ ID NO: 2] | 80.8
{C20 diacid-εLys-AEEA-γGlu}-GSPSIVTS[αMeL]DVPT[Aib][αMeL]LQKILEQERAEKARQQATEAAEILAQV-NH2 [SEQ ID NO: 25] | 75.6
Ac-PPPIVTS[αMeL]DVPT[Aib][αMeL]LQKLLEQERAEKARQQAK([γGlu-AEEA-εLys-C20 diacid])EAAEILAQV-NH2 [SEQ ID NO: 48] | 68.5
